Numbers sourced from patent US20080161232A1.

Catalogue of molecules with associated pIC50
target: human C5aR(CD88) (Homo sapiens); construct: expressed in transfected cells; host or cells: rat basophilic leukemia cells (RBL); assay: Determination of the IC50 value in an enzyme release assay (functional assay, antagonistic activity); assay type: cell-based; conditions: antagonistic activity; IC50 group in enzyme release assay, RBL cells expressing human C5aR(CD88); read-out: activity (group)
Sequence (P21730 whole entry): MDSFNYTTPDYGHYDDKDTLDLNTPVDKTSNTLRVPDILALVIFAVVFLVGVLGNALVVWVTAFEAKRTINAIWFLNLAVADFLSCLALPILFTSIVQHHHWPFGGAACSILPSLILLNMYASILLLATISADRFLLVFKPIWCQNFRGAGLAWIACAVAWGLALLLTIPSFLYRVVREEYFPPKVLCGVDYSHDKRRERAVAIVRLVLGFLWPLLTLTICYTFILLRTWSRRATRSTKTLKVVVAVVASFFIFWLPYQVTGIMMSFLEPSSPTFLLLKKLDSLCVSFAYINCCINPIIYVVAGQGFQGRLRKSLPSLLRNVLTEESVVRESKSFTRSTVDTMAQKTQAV
pIC50: −log10 of the molar value. Positions of bridges follow the written chain, without caps; N, C: chain ends. Non-standard residues stand in square brackets, D forms with d. Residues, ends and D or L forms follow the SMILES beside them. *: point of attachment. Decanoyl(3,6,9-trioxa) = COCCOCCOCC(=O)*; Phe(4-F) = N[C@@H](Cc1ccc(F)cc1)C(=O)O; Bta = N[C@@H](Cc1csc2ccccc12)C(=O)O; Hyp = O=C(O)[C@@H]1C[C@@H](O)CN1; d(hLeu) = CC(C)CC[C@@H](N)C(=O)O; 2Thi = N[C@@H](Cc1cccs1)C(=O)O; dCha = N[C@H](CC1CCCCC1)C(=O)O; dChg = N[C@@H](C(=O)O)C1CCCCC1; Nle = CCCC[C@H](N)C(=O)O; Orn = NCCC[C@H](N)C(=O)O

Some molecules with known pIC50 results, for comparison:
[[record]]
molecule = "CC(=O)N[C@@H](Cc1ccccc1)C(=O)N[C@@H](CCCN)C(=O)N1CCC[C@H]1C(=O)N[C@@H](C(=O)N[C@@H](Cc1c[nH]c2ccccc12)C(=O)N[C@@H](Cc1ccccc1)C(N)=O)C1CCCCC1 [Compound 109, Ac-Phe-Orn-Pro-chg-Trp-Phe-NH2] (Ac-F[Orn]P[dChg]WF-NH2)"
assayed_target = "human C5aR(CD88) (Homo sapiens)"
reported_property = "pIC50"
endpoint_result = "6.70 to 7.30"

[[record]]
molecule = "CC(=O)N[C@@H](Cc1ccccc1)C(=O)N[C@@H](CCC(N)=O)C(=O)N1CCC[C@H]1C(=O)N[C@H](CC1CCCCC1)C(=O)N[C@@H](Cc1c[nH]c2ccccc12)C(=O)N[C@@H](Cc1ccccc1)C(N)=O [Compound 89, Ac-Phe-Gln-Pro-cha-Trp-Phe-NH2] (Ac-FQP[dCha]WF-NH2)"
assayed_target = "human C5aR(CD88) (Homo sapiens)"
reported_property = "pIC50"
endpoint_result = "5.70 to 6.70"

[[record]]
molecule = "CC(=O)N[C@@H](Cc1cccs1)C(=O)N[C@H]1CCCNC(=O)[C@H](Cc2ccccc2)NC(=O)[C@H](Cc2csc3ccccc23)NC(=O)[C@@H](CCC(C)C)NC(=O)[C@@H]2CCCN2C1=O [Compound 311, Ac-Thi-[Orn-Pro-hle-Bta-Phe]] (Ac-[2Thi][Orn]P[d(hLeu)][Bta]F; lactam 2-C)"
assayed_target = "human C5aR(CD88) (Homo sapiens)"
reported_property = "pIC50"
endpoint_result = "6.70 to 7.30"

[[record]]
molecule = "CC(=O)N[C@@H](Cc1ccccc1)C(=O)N[C@@H](C)C(=O)N1CCC[C@H]1C(=O)N[C@H](CC1CCCCC1)C(=O)N[C@@H](Cc1csc2ccccc12)C(=O)N[C@@H](Cc1ccccc1)C(N)=O [Compound 206, Ac-Phe-Ala-Pro-cha-Bta-Phe-NH2] (Ac-FAP[dCha][Bta]F-NH2)"
assayed_target = "human C5aR(CD88) (Homo sapiens)"
reported_property = "pIC50"
endpoint_result = "6.70 to 7.30"

[[record]]
molecule = "CCCC[C@@H]1NC(=O)[C@H](Cc2c[nH]c3ccccc23)NC(=O)[C@@H](CC2CCCCC2)NC(=O)[C@@H]2C[C@@H](OC(=O)COCCOCCOC)CN2C(=O)[C@@H](NC(=O)[C@H](Cc2ccccc2)NC(C)=O)CCCNC1=O [Compound 5] (Ac-F[Orn][Hyp](Decanoyl(3,6,9-trioxa))[dCha]W[Nle]; lactam 2-C)"
assayed_target = "human C5aR(CD88) (Homo sapiens)"
reported_property = "pIC50"
endpoint_result = "6.70 to 7.30"


Ask: Need pIC50 of CC(=O)N[C@@H](Cc1cccs1)C(=O)N[C@@H](CCCN)C(=O)N1CCC[C@H]1C(=O)N[C@H](CC1CCCCC1)C(=O)N[C@@H](Cc1csc2ccccc12)C(=O)N[C@@H](Cc1cccs1)C(N)=O [Compound 313, Ac-Thi-Orn-Pro-cha-Bta-Thi-NH2] (Ac-[2Thi][Orn]P[dCha][Bta][2Thi]-NH2) , thanks.
Result: 7.30 to 7.70

Ask: And then CCCC[C@@H]1NC(=O)[C@H](Cc2ccc(F)cc2)NC(=O)[C@@H](CC2CCCCC2)NC(=O)[C@@H]2CCCN2C(=O)[C@@H](NC(=O)[C@@H](N)Cc2ccccc2)CCCNC1=O [Compound 374, H-Phe-[Orn-Pro-cha-Pff-Nle]] (H-F[Orn]P[dCha][Phe(4-F)][Nle]; lactam 2-C) , what is it?
Result: 6.70 to 7.30
